Test system: MCF10A
Assay: one-nucleolus phenotype percent effect (relative to siNT 0% and siNOL11 100%); higher = more cells with one nucleolus (ribosome biogenesis inhibition)
Conditions: 20 nM; 72 h
The threshold is inclusive: one-nucleolus phenotype percent effect of exactly 10% counts as true; values below receive false.

Quick check, one-nucleolus phenotype percent effect >= 10%? CAAAGAGGAAGGUCCCAUUAC [hsa-miR-583]
true

Quick check, one-nucleolus phenotype percent effect >= 10%? AGGGGGAUGGCAGAGCAAAAUU [hsa-miR-5010-5p]
true

Quick check, one-nucleolus phenotype percent effect >= 10%? GAGGAAACUGAAGCUGAGAGGG [hsa-miR-4496]
false

Quick check, one-nucleolus phenotype percent effect >= 10%? CCAGGGAGGCUGGUUUGGAGGA [hsa-miR-6754-5p]
true

Quick check, one-nucleolus phenotype percent effect >= 10%? AUACACAUACACGCAACACACAU [hsa-miR-466]
false
